Attribute: inhibition of growth at 10 µM
# System: HCT-116
# RUN_DESCRIPTION: Cytotoxicity against human HCT116 cells at 10 uM after 72 hrs by [3H]thymidine incorporation assay
# STUDY_CONDITIONS: read-out: GI
Non-standard residues stand in square brackets, D forms with d. Residues, ends and D or L forms follow the SMILES beside them. *: point of attachment. NMeK = CN[C@@H](CCCCN)C(=O)O; Boc = CC(C)(C)OC(=O)*
ASSAY_ENDPOINT: inhibition of growth at 10 µM

COMPOUND: CC(C)C[C@@H]1NC(=O)[C@@H]([C@@H](OCc2ccccc2)c2ccccc2)NC(=O)[C@@H](Cc2ccccc2)NC(=O)[C@@H](CC(C)C)NC(=O)[C@H](C(C)C)N(C)C1=O (mixture of isomers)
RESULT: 63%
--
COMPOUND: CC(C)C[C@@H]1NC(=O)[C@H]([C@@H](OCc2ccccc2)c2ccccc2)NC(=O)[C@@H](Cc2ccccc2)NC(=O)[C@@H](CC(C)C)NC(=O)[C@H](C(C)C)N(C)C1=O
RESULT: 64%
--
COMPOUND: CC(C)C[C@@H]1NC(=O)[C@H](C(C)C)NC(=O)[C@@H](CC(C)C)NC(=O)[C@@H](Cc2ccccc2)NC(=O)[C@H](CC(C)C)N(C)C1=O
RESULT: 15%
--
COMPOUND: CC(C)C[C@@H]1NC(=O)[C@H](Cc2ccccc2)NC(=O)[C@H](CCCCNC(=O)OC(C)(C)C)N(C)C(=O)[C@H](CC(C)C)NC(=O)[C@H](C(C)C)NC1=O (cyclo(FLVL[NMeK](Boc)))
RESULT: 58%
--
COMPOUND: CC(C)C[C@@H]1NC(=O)[C@H](Cc2ccccc2)NC(=O)[C@@H](CC(C)C)N(C)C(=O)[C@H](CC(C)C)NC(=O)[C@H](C(C)C)NC1=O
RESULT: 32%

* * *

# RUN_DESCRIPTION: Solubility of the compound
# Format: physicochemical
Non-standard residues stand in square brackets, D forms with d. Residues, ends and D or L forms follow the SMILES beside them. *: point of attachment. dNMeF = CN[C@H](Cc1ccccc1)C(=O)O; Cha = N[C@@H](CC1CCCCC1)C(=O)O; Bn = c1ccc(C*)cc1
Attribute: solubility

COMPOUND: CC(C)C[C@@H]1NC(=O)[C@@H]([C@H](OCc2ccccc2)c2ccccc2)NC(=O)[C@@H](Cc2ccccc2)NC(=O)[C@@H](CC(C)C)NC(=O)[C@H](C(C)C)N(C)C1=O
solubility: 7 µM
//
COMPOUND: CC(C)[C@H]1NC(=O)[C@@H](Cc2ccccc2)N(C)C(=O)[C@H](Cc2ccccc2)NC(=O)[C@H](COCc2ccccc2)NC(=O)[C@H](CC2CCCCC2)NC1=O (cyclo([Cha]S(Bn)F[dNMeF][dV]))
solubility: < 5 µM

* * *

Attribute: inhibition of growth at 10 µM
# Test system: HCT-116
# RUN_DESCRIPTION: Cytotoxicity against human HCT116 cells at 10 uM after 72 hrs by [3H]thymidine incorporation assay
# STUDY_CONDITIONS: read-out: GI
Non-standard residues stand in square brackets, D forms with d. Residues, ends and D or L forms follow the SMILES beside them. *: point of attachment. dNMeF = CN[C@H](Cc1ccccc1)C(=O)O; Cha = N[C@@H](CC1CCCCC1)C(=O)O; NMeK = CN[C@@H](CCCCN)C(=O)O; Bn = c1ccc(C*)cc1

COMPOUND: CC(C)C[C@@H]1NC(=O)[C@H](Cc2ccccc2)NC(=O)[C@H](CCCCN)NC(=O)[C@H](CC(C)C)NC(=O)[C@H](C(C)C)NC1=O (cyclo(FLVLK))
UNIT_ABBREVIATION: %
inhibition of growth at 10 µM: 0
--
COMPOUND: CC(C)C[C@@H]1NC(=O)[C@@H](Cc2ccccc2)NC(=O)[C@@H](CC(C)C)NC(=O)[C@H](CC(C)C)N(C)C(=O)[C@H](C(C)C)NC1=O
UNIT_ABBREVIATION: %
inhibition of growth at 10 µM: 18
--
COMPOUND: CC(C)C[C@@H]1NC(=O)[C@H](CC(C)C)NC(=O)[C@H](C(C)C)NC(=O)[C@@H](Cc2ccccc2)N(C)C(=O)[C@H](Cc2ccccc2)NC1=O
UNIT_ABBREVIATION: %
inhibition of growth at 10 µM: 99
--
COMPOUND: CC(C)C[C@@H]1NC(=O)[C@H](C(C)C)NC(=O)[C@@H](Cc2ccccc2)N(C)C(=O)[C@H](Cc2ccccc2)NC(=O)[C@@H](CC(C)C)N(C)C1=O
UNIT_ABBREVIATION: %
inhibition of growth at 10 µM: 47
--
COMPOUND: CC(C)C[C@@H]1NC(=O)[C@H](CC(C)C)NC(=O)[C@@H](C(C)C)NC(=O)[C@@H](Cc2ccccc2)NC(=O)[C@H](Cc2ccccc2)NC1=O
UNIT_ABBREVIATION: %
inhibition of growth at 10 µM: 4
--
COMPOUND: CC(C)C[C@@H]1NC(=O)[C@H](CC(C)C)NC(=O)[C@H](C(C)C)NC(=O)[C@@H](CC(C)C)NC(=O)[C@@H](Cc2ccccc2)NC1=O
UNIT_ABBREVIATION: %
inhibition of growth at 10 µM: 14
--
COMPOUND: CC(C)[C@H]1NC(=O)[C@@H](Cc2ccccc2)N(C)C(=O)[C@H](Cc2ccccc2)NC(=O)[C@H](CO)NC(=O)[C@H](CC2CCCCC2)NC1=O
UNIT_ABBREVIATION: %
inhibition of growth at 10 µM: 18
--
COMPOUND: CC(C)C[C@@H]1NC(=O)[C@@H](C(C)C)NC(=O)[C@@H](CC(C)C)NC(=O)[C@H](Cc2ccccc2)N(C)C(=O)[C@H](CC(C)C)NC1=O
UNIT_ABBREVIATION: %
inhibition of growth at 10 µM: 30
--
COMPOUND: CC(C)[C@H]1NC(=O)[C@@H](Cc2ccccc2)NC(=O)[C@H](Cc2ccccc2)NC(=O)[C@H](COCc2ccccc2)NC(=O)[C@H](CC2CCCCC2)NC1=O (cyclo([Cha]S(Bn)F[dF][dV]))
UNIT_ABBREVIATION: %
inhibition of growth at 10 µM: 10
--
COMPOUND: CC(C)C[C@@H]1NC(=O)[C@H](Cc2ccccc2)NC(=O)[C@H](CCCCN)NC(=O)[C@H](CC(C)C)NC(=O)[C@@H](C(C)C)NC1=O (cyclo(FL[dV]LK))
UNIT_ABBREVIATION: %
inhibition of growth at 10 µM: 0
--
COMPOUND: CC(C)C[C@@H]1NC(=O)[C@@H](Cc2ccccc2)NC(=O)[C@@H](Cc2ccccc2)NC(=O)[C@@H](CC(C)C)N(C)C(=O)[C@H](C(C)C)N(C)C1=O
UNIT_ABBREVIATION: %
inhibition of growth at 10 µM: 15
--
COMPOUND: CC(C)C[C@@H]1NC(=O)[C@H](Cc2ccccc2)NC(=O)[C@@H](CC(C)C)NC(=O)[C@@H](CC(C)C)NC(=O)[C@H](C(C)C)NC1=O
UNIT_ABBREVIATION: %
inhibition of growth at 10 µM: 20
--
COMPOUND: CC(C)C[C@@H]1NC(=O)[C@H](Cc2ccccc2)NC(=O)[C@H](CC(C)C)N(C)C(=O)[C@H](CC(C)C)NC(=O)[C@H](C(C)C)NC1=O
UNIT_ABBREVIATION: %
inhibition of growth at 10 µM: 35
--
COMPOUND: CC(C)C[C@@H]1NC(=O)[C@H](CC(C)C)NC(=O)[C@H](C(C)C)NC(=O)[C@H](CC(C)C)NC(=O)[C@@H](Cc2ccccc2)NC1=O
UNIT_ABBREVIATION: %
inhibition of growth at 10 µM: 26
--
COMPOUND: CC(C)C[C@@H]1NC(=O)[C@H](CC(C)C)N(C)C(=O)[C@H](C(C)C)NC(=O)[C@@H](CC(C)C)NC(=O)[C@H](Cc2ccccc2)NC1=O
UNIT_ABBREVIATION: %
inhibition of growth at 10 µM: 3
--
COMPOUND: CC(C)[C@H]1NC(=O)[C@@H](Cc2ccccc2)N(C)C(=O)[C@H](Cc2ccccc2)NC(=O)[C@H](COCc2ccccc2)NC(=O)[C@H](CC2CCCCC2)NC1=O (cyclo([Cha]S(Bn)F[dNMeF][dV]))
UNIT_ABBREVIATION: %
inhibition of growth at 10 µM: 93
--
COMPOUND: CC(C)C[C@@H]1NC(=O)[C@@H]([C@H](OCc2ccccc2)c2ccccc2)NC(=O)[C@@H](Cc2ccccc2)NC(=O)[C@@H](CC(C)C)NC(=O)[C@H](C(C)C)N(C)C1=O
UNIT_ABBREVIATION: %
inhibition of growth at 10 µM: 94
--
COMPOUND: CC(C)C[C@@H]1NC(=O)[C@H](CC(C)C)NC(=O)[C@H](C(C)C)NC(=O)[C@H](CC(C)C)NC(=O)[C@@H](Cc2ccc(O)cc2)NC1=O
UNIT_ABBREVIATION: %
inhibition of growth at 10 µM: 50
--
COMPOUND: CC(C)C[C@@H]1NC(=O)[C@H](Cc2ccccc2)NC(=O)[C@H](CCCCNC(=O)OC(C)(C)C)NC(=O)[C@H](CC(C)C)NC(=O)[C@H](C(C)C)NC1=O
UNIT_ABBREVIATION: %
inhibition of growth at 10 µM: 0
--
COMPOUND: CC(C)C[C@@H]1NC(=O)[C@H](Cc2ccccc2)NC(=O)[C@@H](Cc2ccccc2)NC(=O)[C@@H](CC(C)C)NC(=O)[C@H](C(C)C)NC1=O
UNIT_ABBREVIATION: %
inhibition of growth at 10 µM: 28
--
COMPOUND: CC(C)C[C@@H]1NC(=O)[C@H](Cc2ccccc2)NC(=O)[C@H](CCCCN)N(C)C(=O)[C@H](CC(C)C)NC(=O)[C@H](C(C)C)NC1=O (cyclo(FLVL[NMeK]))
UNIT_ABBREVIATION: %
inhibition of growth at 10 µM: 0
--
COMPOUND: CC(C)C[C@@H]1NC(=O)[C@H](C(C)C)NC(=O)[C@@H](Cc2ccccc2)N(C)C(=O)[C@H](Cc2ccccc2)NC(=O)[C@H](CCCCN)NC1=O (cyclo(F[dNMeF]VLK))
UNIT_ABBREVIATION: %
inhibition of growth at 10 µM: 0
--
COMPOUND: CC(C)C[C@@H]1NC(=O)[C@H](CC(C)C)NC(=O)[C@H](C(C)C)NC(=O)[C@@H](Cc2ccccc2)NC(=O)[C@H](Cc2ccccc2)NC1=O
UNIT_ABBREVIATION: %
inhibition of growth at 10 µM: 21
--
COMPOUND: CC(C)C[C@@H]1NC(=O)[C@H](CC(C)C)NC(=O)[C@@H](C(C)C)NC(=O)[C@H](CC(C)C)NC(=O)[C@H](Cc2ccccc2)NC1=O
UNIT_ABBREVIATION: %
inhibition of growth at 10 µM: 8
--
COMPOUND: CC(C)C[C@@H]1NC(=O)[C@H](CC(C)C)NC(=O)[C@H](C(C)C)NC(=O)[C@H](CC(C)C)NC(=O)[C@@H](Cc2c[nH]c3ccccc23)NC1=O
UNIT_ABBREVIATION: %
inhibition of growth at 10 µM: 30
